Below, each entry is listed with its recorded pEC50.
Study system: T1, human DLL3 on cells (HEK293T cells expressing human DLL3; SHP-77 cells) (human, UniProt Q9NYJ7 27-618)
T1 construct: whole, on cells; also called HEK-DLL3
T1 sequence (looked up): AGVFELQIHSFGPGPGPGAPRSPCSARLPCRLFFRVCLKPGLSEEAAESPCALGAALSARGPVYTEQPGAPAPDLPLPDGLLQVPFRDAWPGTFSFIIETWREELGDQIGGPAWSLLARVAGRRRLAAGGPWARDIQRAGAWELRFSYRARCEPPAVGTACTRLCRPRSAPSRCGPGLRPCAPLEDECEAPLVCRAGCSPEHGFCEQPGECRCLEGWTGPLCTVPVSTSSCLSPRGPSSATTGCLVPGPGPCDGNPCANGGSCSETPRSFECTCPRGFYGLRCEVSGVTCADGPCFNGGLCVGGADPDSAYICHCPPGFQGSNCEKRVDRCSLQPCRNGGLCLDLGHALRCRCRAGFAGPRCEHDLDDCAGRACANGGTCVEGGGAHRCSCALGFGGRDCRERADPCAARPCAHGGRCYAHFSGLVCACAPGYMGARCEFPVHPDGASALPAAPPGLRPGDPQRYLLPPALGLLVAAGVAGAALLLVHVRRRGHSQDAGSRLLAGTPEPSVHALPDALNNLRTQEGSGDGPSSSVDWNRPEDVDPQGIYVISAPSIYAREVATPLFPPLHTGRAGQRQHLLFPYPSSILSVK
Test name: flow cytometry on SHP-77 cells (endogenous DLL3), H435Q-Fc format
Note on units: pEC50 is unitless, being -log10 of a concentration expressed in mol/L.

Reference set, count: 4
- Binder: "Clone 24 VHH-Fc, H435Q-Fc format (Fc fusion, also called 24 (H435Q-Fc); not shown: hinge and human IgG1 Fc with H435Q (EU)) QVQYVESGGGLVQPGGSLRLSCAASGFTFSSYRINWYRQPPGKGRELVGSITDTGSTNYADSVKGRFTISRDNAKNTVYLQMSSLKPEDTAVYYCRAPTIAAYWGQGTQVTVSS"
  pEC50: 8.92
- Binder: "Clone 126 VHH-Fc, H435Q-Fc format (Fc fusion, not shown: hinge and human IgG1 Fc with H435Q (EU)) QVQLVESGGGMVQPGGSLRLSCAASGITFSMYSMSWYRQPPGKQRELVAATTTFGSTNYADSVKGRFTISRDNAKNTVYLQMNSLKPEDTAVYLCNARFTSEEYWGQGTQVTVSS"
  pEC50: 9.36
- Binder: "Clone 186 VHH-Fc, H435Q-Fc format (Fc fusion, also called 186 (H435Q-Fc); not shown: hinge and human IgG1 Fc with H435Q (EU)) QVQVVESGGGLVQPGGSLTLSCAASGFDFSTYTVNWYRQAPGKEREKVARISSTGTTTNYANSAKGRFTLSRDNAKNRVYLQMNNLKPEDTAVYFCNFERFDSNYWGQGTQVTVSS"
  pEC50: 9.33
- Binder: "Clone 100 VHH-Fc, H435Q-Fc format (Fc fusion, also called 100 (H435Q-Fc); not shown: hinge and human IgG1 Fc with H435Q (EU)) QVQLVESGGGSVQPGGSLRLSCAASGIVFNSDVMGWYRQVPGKPRELVATITGGGSTNYATSVKGRFTISRDNAKNTVYLQMNSLRPEDTAVYYCNGRRGDSMLAFWAQGTQVTVSS"
  pEC50: 8.94

Now consider a different binder.
Exam item: What value of pEC50 has been reported for the following binder? Clone 107 VHH-Fc, H435Q-Fc format (Fc fusion, not shown: hinge and human IgG1 Fc with H435Q (EU)) QVQLVESGGGLVQAGDSLRLSCVASDRTFSSYAVGWFRQAPGKEREFVAAISWNGGRTLYTDSVTGRFTISRDNAKSTVYLQMNGLKPEDTAVYYCAARPAAPTRRLEYDYWGQGTQVTVSS
Marked response: 9.13
